experiment: in vitro; settings: human, hela cells, % viability
recorded endpoint: viability at 28.5 h, 10 µM (%)
Numbers only, in %.

Items follow; give viability at 28.5 h, 10 µM for each.
1. Cc1ccc2nc(C)cc(C(=O)OCc3ccc(C(N)=O)cc3)c2c1 [CBK296676]
2. CC(C)[C@H](CO)Nc1nc(-c2ccc3c(c2)OCO3)cn2ccnc12 [CBK038071]
3. COc1ccc(Br)cc1S(=O)(=O)Nc1c(C(=O)O)sc2ncccc12 [CBK049978]
4. CCNC(=O)CN1CCN(C(C(=O)O)c2c[nH]c3ccc(C)cc23)CC1 (stereo not shown) [CBK286694]

RESULT:
1: 97.8; 2: 101; 3: 88; 4: 98

Items follow; give viability at 28.5 h, 10 µM for each.
1. C=C(C)Cn1c(SCC(C)C)nnc1-c1cnccc1C [CBK200075T]
2. O=C(NCCN1CCCCC1)C1CC(=O)N(Cc2ccncc2)C1 (stereo not shown) [CBK306629]
3. CN(C)c1cccc(-c2ccc(Nc3ccc(N4CCOCC4)cc3)nc2)c1 [CBK037735]
4. CCOC(=O)C1=C(CSc2nccn2C)NC(=O)NC1c1ccc2c(c1)OCO2 (stereo not shown) [CBK268746]
5. O=C(NCC1COc2ccccc2O1)NC(=O)C1CCNCC1 (stereo not shown) [CBK051096]
6. CC(=O)c1ccc(NC(=O)N2Cc3nc[nH]c3C[C@H]2c2nc(-c3ccc(C)cc3)no2)cc1 [CBK288959]
7. CCn1cc(C(=O)NN)c(=O)c2cc(F)c(N3CCCC3)cc21 [CBK307146]
8. CC(=O)Nc1ccc(-c2ccc(C(=O)NCc3ccc(C(C)C)cc3)cn2)cc1 [CBK158857]

RESULT:
1. 96
2. 100
3. 92.2
4. 85.5
5. 91.6
6. 83.6
7. 82.9
8. 101

Items follow; give viability at 28.5 h, 10 µM for each.
1. Cc1cc(C)c(C)c(S(=O)(=O)Nc2ccc(O)c(Sc3nc[nH]n3)c2)c1C [CBK267012]
2. O=C(O)c1ccc(-c2ccc(OC(F)(F)F)cc2)nc1 [CBK160173T]
3. COc1ccc([C@H]2CN(Cc3ccccc3)[C@@H]3CCN(C(=O)Cc4ccccc4)C[C@H]23)cc1 [CBK286285]
4. CC(C)CC(CC(C)C)OCC(=O)NCC1(c2ccc3ccccc3c2)CCC1 [CBK067404]
5. COc1ccc(C(C)C)cc1-c1nc(N)cc2cccnc12 [CBK081178]
6. Cn1ncc(C#N)c1NC(=O)C1CC(c2ccc(Cl)c(Cl)c2)=NO1 (stereo not shown) [CBK267478]

RESULT:
66.6
90.6
108
109
99.6
93.7

CCCSc1nc2c(c(=O)[nH]1)C(c1ccncc1)C1=C(CCCC1=O)N2 (stereo not shown) [CBK287606] has a reported viability at 28.5 h, 10 µM of 106

---

assay: in vitro; conditions: human, hela cells, % viability
Please provide measured viability at 28.5 h, 10 µM for the entries that follow.
Numbers only, in %.

Some solved entries appear below for comparison.
CC(C)C(=O)N(C)c1nnc(-c2cccnc2)s1 : 114
CN(C)CC1(O)C2CN3CCN(C2)CC1(c1ccccc1)C3 (stereo not shown) : 97.5
CC(C)c1nc(C(=O)NCC2CCCN(c3ncccn3)C2)cs1 (stereo not shown) : 100
O=C(c1cn2ccccc2n1)N1CCCN(Cc2cscn2)CC1 : 104
COc1cc(-c2cncc(N(C)CCN(C)C)n2)cc(OC)c1OC : 90.5

Items follow; give viability at 28.5 h, 10 µM for each.
1. O=C(O)CSc1ccccc1[N+](=O)[O-]
2. CC(C)[C@@H](CO)Nc1cc(Cl)nc2ccnn12
3. CCNC(=O)c1cnc(-c2cccc(C(F)(F)F)c2)c(-c2cccc(CO)c2)c1
4. Nc1cccc(S(=O)(=O)N2CCC(C(=O)O)CC2)c1
5. CC(C)(C)OC(=O)N1CC2(C1)N=C1C=C(C(C)(C)C)ON1[C@H]1[C@H](O)[C@H](O)C[C@H]12
6. Nc1ncc(-c2cc3ccccc3o2)nc1-c1ccc(C=O)cc1
7. NS(=O)(=O)c1ccc(N2C(=O)C(O)=C(C(=O)c3ccc(Cl)cc3)C2c2ccc([N+](=O)[O-])cc2)cc1 (stereo not shown)

RESULT:
1. 86.8
2. 96.2
3. 94.7
4. 88.2
5. 97.6
6. 91.9
7. 97.2

---

experiment: in vitro; conditions: human, hela cells, % viability
Please provide measured viability at 28.5 h, 10 µM for the entries that follow.
Answers are plain numbers, in %.

Some solved entries appear below for comparison.
CCN(Cc1cn2cccc(C(=O)OC)c2n1)CC1CCOC1 (stereo not drawn) : 96.6
CC1CC(C)CN(C(=O)CN2C(=O)N3CCN=C3c3ccccc32)C1 (stereo not drawn) : 90
CC(=O)Nc1ccc(S(=O)(=O)N2CCN(c3ccc([N+](=O)[O-])c(N4CCOCC4)c3)CC2)cc1 : 109
S=c1[nH]nnn1-c1ccc(Cl)c(Cl)c1 : 96.7
C/N=C1/c2cn3ccccc3c2CCN1C : 116
O=C1CCCc2nccc(-c3ccc(Cl)cc3)c21 : 82.9
CS(=O)(=O)N(Cc1ccc(Cl)cc1)c1ccc(C(=O)Nc2cccnc2)cc1 : 95.3
Cc1cccc(NC(=S)N2CCN(Cc3ccc4c(c3)OCO4)CC2)c1C : 82.7

Cc1ccc(NS(=O)(=O)c2cc(C(=O)O)ccc2Cl)cc1S(=O)(=O)N1CCOCC1 has a reported viability at 28.5 h, 10 µM of 113

---

Please provide measured viability at 28.5 h, 10 µM for the entries that follow.
test: in vitro; details: human, hela cells, % viability
One number for each entry, in %.

Some solved entries appear below for comparison.
COC(=O)c1ccc(NS(=O)(=O)c2ccc(C)c(C(=O)O)c2)c(C)c1 : 105
O=C(CN1C(=O)CCC1=O)Nc1nc2ccccc2s1 : 97.7
Cc1cc(-c2c(C)n(-c3ccccc3)[nH]c2=O)n2ncnc2n1 : 89.4
O=C(CCCN1C(=O)/C(=C\c2cccs2)SC1=S)Nc1cc(Cl)ccc1O : 99.5
CCCc1nc(CN2CCN(c3ccc4nncn4n3)CC2)cs1 : 97.7

Items follow; give viability at 28.5 h, 10 µM for each.
1. O=C(Nc1cccc(F)c1)N(Cc1cccnc1)CC1CCCO1 (stereo not shown)
2. COc1ccc([C@@]23CC[C@@H](NC(=O)c4ccc(F)c(C(F)(F)F)c4)C[C@@H]2N(C)CC3)cc1OC [CBK074967T]
3. O=S(=O)(Nc1ccc(N2CCNCC2)c2ccccc12)c1ccc(Br)cc1F [CBK200014C]
4. CC1(C)CC(/N=C(\c2ccccc2)c2ccc(O)cc2O)CC(C)(C)N1
5. CC(=O)Nc1ccc(OCC(O)Cn2cnc3cc(C)c(C)cc32)cc1 (stereo not shown)
6. O=C(O)c1ccccc1C(=O)c1ccc(Oc2ncc(C(F)(F)F)cc2Cl)cc1
7. Cc1cc(C(F)(F)F)n2nc(C3CCCN3C(=O)C(C)C)cc2n1 (stereo not shown)

RESULT:
1: 109; 2: 93.6; 3: 95.4; 4: 101; 5: 93.3; 6: 106; 7: 93

Items follow; give viability at 28.5 h, 10 µM for each.
1. CCn1cc(C(=O)NC2(c3cccc(OC)c3)CCCC2)cn1
2. O=S(=O)(c1ccccc1)N1CCCC1c1cccs1 (stereo not shown)
3. CN1C(=O)C(C)(C)Oc2ccc(C(O)c3ccco3)cc21 (stereo not shown)

RESULT:
101
110
89.8

---

assay: in vitro; conditions: human, hela cells, % viability
recorded endpoint: viability at 28.5 h, 10 µM (%)
Answers are plain numbers, in %.

Some solved entries appear below for comparison.
O=C(Cn1ccnc1)Nc1nc(-c2ccccc2F)cs1 : 104
CC(=O)N1CCC2(C/C=C/C[C@H]3CN(Cc4nccs4)CC[C@H]3NC(=O)CNC2=O)CC1 : 111
Nc1nc(OCc2cccs2)cnc1-c1ccsc1 : 95.8

Items follow; give viability at 28.5 h, 10 µM for each.
1. O=c1[nH]nc2cc(NCc3ccc(Cl)cc3)ncn12
2. CN(C)C(=O)COc1cccc(Nc2nc(-c3cccc4ccccc34)cn3ccnc23)c1
3. N#Cc1ccc(S(=O)(=O)N2CCC(OCc3ccncc3)C2)cn1 (stereo not shown)
4. CCCCCCN1CCN(c2nccn(CCOc3cc(F)c(F)cc3F)c2=O)CC1 [CBK045889C]
5. COc1cc(C(C)NC(=O)c2ccc(=O)[nH]n2)ccc1OC1CCCC1 (stereo not shown)
6. CN(C)Cc1ncccc1OCCO [CBK001411C]
7. O=C(Cc1ccccc1F)NCCn1nc(-c2ccco2)ccc1=O

RESULT:
1. 114
2. 82.1
3. 91
4. 113
5. 89.7
6. 111
7. 96.9

Measured values drawn from paper PMC12040169 for this set.
